Compiled record: pKi values for Coagulation factor XI (Homo sapiens, UniProt P03951) across several sources.
Please keep in mind that pKi is minus log10 of the molar concentration; only the number is needed.

Query :: Quote Coagulation factor XI (Homo sapiens, UniProt P03951) pKi for entry `CC(C)(C)OC(=O)N1CCN2c3cccc(c3)[C@@H](n3cnc(-c4cc(Cl)ccc4-n4cc(Cl)nn4)cc3=O)CCCCCNC(=O)[C@@H]2C1` .
Result :: 6.02

Query :: Answer with pKi of COC(=O)Nc1ccc2c(c1)NC(=O)CC1CC1CC(c1ccc(-c3c(C(F)F)ccc(C)c3F)c[n+]1[O-])c1nc-2c(C)[nH]1 (racemic) measured for Coagulation factor XI (Homo sapiens, UniProt P03951).
Result :: 8.97

Query :: Provide measured pKi on Coagulation factor XI (Homo sapiens, UniProt P03951) for COC(=O)Nc1ccc2c(c1)NC(=O)CCCC[C@H](C(=O)N1CC[C@@]3(C1)OC(=O)Nc1ccc(Cl)cc13)c1nc-2c[nH]1 (single isomer, unassigned) please.
Result :: 6.59

Query :: Enter recorded pKi with Coagulation factor XI (Homo sapiens, UniProt P03951) for `COC(=O)Nc1ccc(-c2cc([C@H](Cc3ccncc3)NC(=O)/C=C/c3cc(Cl)ccc3-n3cnnn3)nnc2Cl)cc1` here.
Result :: 7.57

Query :: Provide Coagulation factor XI (Homo sapiens, UniProt P03951) pKi reading for `C[C@@H]1CCC[C@H](N2CCC(c3cc(Cl)ccc3-n3cc(C(F)(F)F)nn3)=CC2=O)C(=O)NCc2cc(F)ccc2NC1=O` .
Result :: 8.15

Query :: Report pKi under test system Coagulation factor XI (Homo sapiens, UniProt P03951) for `[2H]C([2H])([2H])n1ncc2c1-c1ccnc(c1)[C@@H](N1CCC(c3cc(Cl)ccc3-n3cc(Cl)nn3)=CC1=O)CCC[C@@H](C)C(=O)N2` .
Result :: 9.82

Query :: Look up and report measured pKi (Coagulation factor XI (Homo sapiens, UniProt P03951)) for the following compound: Cc1[nH]c2nc1-c1cc(F)ccc1NC(=O)CCCC[C@@H]2c1ccc(-c2cc(F)ccc2-n2cnnn2)c[n+]1[O-] (single isomer, unassigned)
Result :: 9.33

Query :: Look up Coagulation factor XI (Homo sapiens, UniProt P03951) data: pKi of `C[C@@H]1CCC[C@H](NC(=O)c2cn(-c3cccc(Cl)c3F)nn2)C(=O)NCc2ccccc2NC1=O` , then report it.
Result :: 5.06

* * *

pKi: −log10 of the molar value.
// cross-source set; read-out = pKi; system = Coagulation factor XI (Homo sapiens)
# label = bin(measured pKi), where bins are bucket 1 = under 7, bucket 2 = from 7 up to 8, bucket 3 = 8 and over

Query :: Category of COC(=O)Nc1ccc2c(c1)NC(=O)CC1CC1CC(c1ccc(-c3c(F)ccc(Cl)c3F)c[n+]1[O-])c1nc-2c[nH]1 (racemic) , please.
Result :: bucket 3

Query :: Could you place `O=C(Nc1ccc(-n2ccnc2)cc1)[C@H](Cc1ccccc1)n1cnc(-c2cc(Cl)ccc2-n2cc(Cl)nn2)cc1=O` in its proper category? Many thanks.
Result :: bucket 2

Query :: State the band of `N=C(N)c1ccc(NC(=O)[C@H](Cc2ccccc2)n2cnc(-c3cc(Cl)ccc3-n3cc(Cl)nn3)cc2=O)cc1`
Result :: bucket 1

Query :: Which class does CCOC(=O)Nc1ccc2c(c1)NC(=O)CCCC[C@H](c1ccc(-c3c(F)ccc(Cl)c3F)c[n+]1[O-])c1nc-2c(C)[nH]1 (single isomer, unassigned) fall in?
Result :: bucket 3

Query :: Which class is correct for the following molecule? COC(=O)Nc1ccc2c(c1)NC(=O)CCC(C)CC[C@H](NC(=O)/C=C/c1cc(Cl)ccc1-n1cnnn1)c1nc-2c[nH]1 (single isomer, unassigned)
Result :: bucket 3

Query :: Place this molecule in its band: `COC(=O)Nc1ccc2c(c1)NC(=O)CC/C=C/C[C@H](NC(=O)c1ccc3c(c1)CCC[C@@H]3N)c1nc-2c[nH]1`
Result :: bucket 1

Query :: Bin? CCOC(=O)C1C/C=C/CC(C(=O)N2CCC[C@@]3(C2)OC(=O)Nc2ccc(Cl)c(F)c23)c2nc(c[nH]2)-c2ccc(NC(=O)OC)cc2N1 (stereo partly drawn)
Result :: bucket 2

Query :: Returns: class label. Input: `C[C@@H]1CCC[C@H](n2cnc(-c3cc(Cl)ccc3-n3cc(C(F)(F)F)nn3)cc2=O)c2cccc(c2)C[C@H](CO)NC1=O`
Result :: bucket 1

Query :: Category of `CC(C)(C)OC(=O)NCC[C@H]1Nc2cccc(c2)[C@@H](n2cnc(-c3cc(Cl)ccc3-n3cc(Cl)nn3)cc2=O)CCCCCNC1=O` :
Result :: bucket 2

Query :: Into which category would you place `COCCN(C)C(=O)[C@H](Cc1ccccc1)n1cnc(-c2cc(Cl)ccc2-n2cc(Cl)nn2)cc1=O` ?
Result :: bucket 1

Query :: Input COC(=O)Nc1ccc2c(c1)NC(=O)CCCC[C@H](c1ccc(-c3c(F)ccc(Cl)c3F)c[n+]1[O-])c1cc-2ncc1F (single isomer, unassigned) ; output its category
Result :: bucket 3

* * *

Record: compiled pKi on Coagulation factor XI (Homo sapiens, UniProt P03951) from multiple reports.
Notebook: values listed as pKi are -log10 of the concentration (mol/L).

Query :: Identify measured pKi corresponding to `Cn1ccc(-c2ccc(NC(=O)[C@H](Cc3ccccc3)N3CCc4cc(CN)ccc4C3=O)cc2)n1`
Result :: 6.68

Query :: Item `N=C(N)NCCC[C@@H](NS(=O)(=O)Cc1ccccc1)C(=O)N1CCC[C@H]1C(=O)NCc1ccc(C(=N)N)cc1` : provide pKi
Result :: 7.57

Query :: Tell us which pKi value is on record for `CN1[C@@H]2CC[C@H]1C[C@@H](NC(=O)[C@H](Cc1ccccc1)n1cnc(-c3cc(Cl)ccc3-n3cc(Cl)nn3)cc1=O)C2`
Result :: 5.40

* * *

Collected literature values of Ki measured for Coagulation factor XI (Homo sapiens).

Query :: State measured Ki of the compound `COC(=O)Nc1ccc2c(c1)NC(=O)CCCC[C@H](NC(=O)c1cnn(-c3cccc(Cl)c3F)c1C)c1cc-2ccn1` with Coagulation factor XI (Homo sapiens).
Result :: < 5 nM

Query :: Supply Ki measured with Coagulation factor XI (Homo sapiens) for `O=C1NCCCCC[C@H](n2cnc(-c3cc(Cl)ccc3-n3cc(Cl)nn3)cc2=O)c2cccc(c2)N2CCC[C@H]12` .
Result :: 8 nM

Query :: // fetch Ki; item: `N=C(N)c1ccc(CNC(=O)[C@H](CCC2CCNCC2)NC(=O)[C@@H](CCCc2ccccc2)NS(=O)(=O)Cc2cccc(C(=O)O)c2)cc1` ; system: Coagulation factor XI (Homo sapiens)
Result :: 70 nM

Query :: Quote Coagulation factor XI (Homo sapiens) Ki for entry COC(=O)Nc1ccc2c(c1)NC(=O)CCCCC(c1ccc(-c3c(F)ccc(Cl)c3F)c[n+]1[O-])c1cnn-2c1 (racemic) .
Result :: 6.8 nM

Query :: Specify Ki for `COC(=O)NCC[C@H]1Nc2cccc(c2)[C@@H](n2cnc(-c3cc(Cl)ccc3-n3cc(Cl)nn3)cc2=O)CCCCCNC1=O` , system Coagulation factor XI (Homo sapiens).
Result :: 5 nM

Query :: Tell me Ki of `CC(=O)NC1CCN(C(=O)[C@H](Cc2ccccc2)n2cnc(-c3cc(Cl)ccc3-n3cc(Cl)nn3)cc2=O)CC1` when tested on Coagulation factor XI (Homo sapiens).
Result :: 3050 nM

Query :: Fetch value of Ki on Coagulation factor XI (Homo sapiens) for `COC(=O)c1ccc(CS(=O)(=O)N[C@H](COC(C)(C)C)C(=O)N[C@@H](C)C(=O)NCc2ccc(C(=N)N)cc2)cc1` .
Result :: 79 nM

Query :: Under Coagulation factor XI (Homo sapiens), report Ki for `COC(=O)Nc1ccc(-c2[nH]c([C@H](Cc3ccccc3)N3CCc4cc(CN)ccc4C3=O)nc2C)cc1`
Result :: 84 nM

Query :: Write down the reported Ki (system: Coagulation factor XI (Homo sapiens)) of `N=C(N)c1ccc(CNC(=O)[C@H](CCC(=O)NCCCOCCOCCOCCCN)NC(=O)[C@@H](CC2CCCCC2)NS(=O)(=O)Cc2ccccc2)cc1`
Result :: 40 nM

Query :: For Coagulation factor XI (Homo sapiens), give the measured Ki of the entry `COC(=O)Nc1ccc2c(c1)CCC/C=C/C[C@H](NC(=O)/C=C/c1cc(Cl)ccc1-n1cnnn1)c1nc-2c[nH]1`
Result :: 636 nM

Query :: State Ki (Coagulation factor XI (Homo sapiens)) of `CC(C)(C)OC[C@@H](NS(=O)(=O)Cc1ccccc1)C(=O)N[C@@H](CCCNC(=N)N)C(=O)NCc1ccc(C(=N)N)cc1` .
Result :: 340 nM

Query :: Retrieve Ki on Coagulation factor XI (Homo sapiens); query COC(=O)Nc1ccc(-c2cc(C(CC(=O)N3CCN(C)CC3)NC(=O)/C=C/c3cc(Cl)ccc3-n3cnnn3)c(Cl)nn2)cc1 (single isomer, unassigned)
Result :: 4 nM

Query :: Write Ki of COC(=O)Nc1ccc2c(c1)NC(=O)CCCC[C@H](c1ccc(-c3cc(F)ccc3OC(F)F)c[n+]1[O-])c1nc-2c(C)[nH]1 (single isomer, unassigned) ; system used: Coagulation factor XI (Homo sapiens)
Result :: 0.12 nM

Query :: Provide Ki, recorded with Coagulation factor XI (Homo sapiens), of `O=C1NCc2ccc(NC(=O)[C@H](Cc3ccccc3)n3cnc(-c4cc(Cl)ccc4-n4cc(Cl)nn4)cc3=O)cc21`
Result :: 102 nM

Query :: Find the measured Ki of COC(=O)Nc1ccc2c(c1)NC(=O)C1(CCC[C@H](c3ccc(-c4c(F)cccc4OC(F)F)c[n+]3[O-])c3nc-2c(C)[nH]3)CC1 (single isomer, unassigned) with Coagulation factor XI (Homo sapiens) as test system.
Result :: 2.5 nM

Query :: Give Ki only, for COC(=O)Nc1ccc2c(c1)NC(=O)CC/C=C/CC(NC(=O)/C=C/c1cc(Cl)ccc1-n1cnnn1)c1cc-2nnc1Cl (stereo not shown) , using Coagulation factor XI (Homo sapiens) data.
Result :: 1060 nM

Query :: # return Ki of COC(=O)Nc1ccc2c(c1)NC(=O)[C@@H](C)CCC[C@H](c1ccc(-c3c(F)cccc3F)c[n+]1[O-])c1nc-2c(C)[nH]1 (single isomer, unassigned) (system: Coagulation factor XI (Homo sapiens))
Result :: 0.33 nM

Query :: Write down the reported Ki (system: Coagulation factor XI (Homo sapiens)) of O=C(/C=C/c1cc(Cl)ccc1-n1cnnn1)N[C@H]1CC=CCCC(=O)Nc2ccccc2C2=NN=C1O2 (mixture of isomers)
Result :: 25 nM

Query :: Jot down Ki (Coagulation factor XI (Homo sapiens)) of `O=C(/C=C/c1cc(Cl)ccc1-n1cnnn1)N[C@@H](Cc1ccccc1)c1cc(-c2ccc3[nH]c(=O)cc(O)c3c2)cnn1` .
Result :: 0.84 nM
